Data credit: paper PMC5542402

TESTED_ON: PhoP (Mycobacterium tuberculosis, UniProt P71814 1-247)
TEST: ITC
PROPERTY_MEASURED: pKd
// scale note: pKd = -log10(conc_M); give the bare number

Request: Look at this binder and give its reported pKd. sel36m (dsDNA) DNA 1: GATTCACAGCTGATACACAGGATCTAG DNA 2: CTAGATCCTGTGTATCAGCTGTGAATC
Result: 7.49
